# TARGET ENTITY: human ether-à-go-go-related gene (hERG) potassium channel (human);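 also: peak tail current of the secondary pulse compared with the same well before compound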
# Sequence (Q12809 whole entry, looked up): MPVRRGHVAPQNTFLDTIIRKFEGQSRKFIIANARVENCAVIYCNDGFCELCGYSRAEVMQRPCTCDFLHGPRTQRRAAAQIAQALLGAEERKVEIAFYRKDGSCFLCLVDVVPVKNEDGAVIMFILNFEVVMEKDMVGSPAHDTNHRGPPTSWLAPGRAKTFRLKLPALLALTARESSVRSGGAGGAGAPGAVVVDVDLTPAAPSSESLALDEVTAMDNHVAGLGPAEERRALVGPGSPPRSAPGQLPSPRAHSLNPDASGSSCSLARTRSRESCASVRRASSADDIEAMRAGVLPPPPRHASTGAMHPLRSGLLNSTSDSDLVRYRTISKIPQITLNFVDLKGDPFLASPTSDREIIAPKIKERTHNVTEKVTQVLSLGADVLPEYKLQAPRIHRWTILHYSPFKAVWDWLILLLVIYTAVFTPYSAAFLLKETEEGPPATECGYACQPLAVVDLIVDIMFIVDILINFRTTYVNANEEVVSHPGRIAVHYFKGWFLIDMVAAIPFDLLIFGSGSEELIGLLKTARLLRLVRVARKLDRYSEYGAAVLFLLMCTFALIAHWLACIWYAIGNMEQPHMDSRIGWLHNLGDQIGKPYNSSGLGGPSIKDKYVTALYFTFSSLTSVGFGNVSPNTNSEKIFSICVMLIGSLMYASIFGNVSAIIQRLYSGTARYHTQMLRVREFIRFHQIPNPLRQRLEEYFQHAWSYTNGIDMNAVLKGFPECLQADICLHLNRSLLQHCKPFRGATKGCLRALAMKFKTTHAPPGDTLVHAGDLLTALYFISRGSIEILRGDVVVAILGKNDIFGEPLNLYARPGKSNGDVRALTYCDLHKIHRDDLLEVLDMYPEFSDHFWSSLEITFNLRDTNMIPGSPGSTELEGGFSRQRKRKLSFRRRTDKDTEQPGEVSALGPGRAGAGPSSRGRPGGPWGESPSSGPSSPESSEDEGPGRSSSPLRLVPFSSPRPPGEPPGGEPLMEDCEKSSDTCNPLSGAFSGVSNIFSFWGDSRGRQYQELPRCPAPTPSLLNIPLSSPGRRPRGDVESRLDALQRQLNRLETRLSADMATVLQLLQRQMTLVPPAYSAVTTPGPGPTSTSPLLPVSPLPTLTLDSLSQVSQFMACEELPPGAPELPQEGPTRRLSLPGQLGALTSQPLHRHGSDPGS
# PROCEDURE DETAILS: primary screen, population patch clamp on CHO cells stably expressing hERG; higher = less effect of the substance
Among all 310,000 compounds or so, about 14,000 (4.5%) showed an effect of 50% or more. The effect is printed as a negative number. This excerpt belongs to a sample that is enriched for strong results.
MEASURED ATTRIBUTE: hERG current change (%, negative = inhibition) at 10uM (%)

| COMPOUND | ENDPOINT VALUE |
| --- | --- |
| Cc1ccc(C(=O)Nc2cc(C(F)(F)F)ccc2-n2cncn2)o1 | -9.88 |
| COc1ccc(OC)c(CN2CCN(C(=O)CNC(=O)c3cc(C)cc(C)c3)CC2)c1 | -42.7 |
| O=C(O)CCc1n[nH]c(=S)[nH]c1=O | 5.81 |
| CCN(CC)Cc1ccccc1CNC(=O)c1cccc(S(=O)(=O)Nc2ccc3c(c2)OCO3)c1 | -71.3 |
| CSc1ccccc1NC(=O)CSCc1ccc(C)cc1 | -7.79 |
| COc1ccccc1NC(=S)NNC(=O)c1ccccc1Br | -70.9 |
| CC(C)OC(=O)CSc1nnc(SCc2cccc3ccccc23)s1 | 7.07 |
| c1ccc(-c2nc(CSc3n[nH]c(-c4cccs4)n3)cs2)cc1 | -15.1 |
| COc1ccccc1C(=O)NNC(=O)c1ccccc1Br | 23 |
| CC1=C(C(=O)OC(C)(C)C)C(c2cccs2)NC(=O)N1 (centres unmarked) | -0.0788 |
| Cc1c(CN2CCC(n3nccc3NC(=O)C3CC3)CC2)[nH]c2ccccc12 | -61 |
| COc1ccc(C(=O)Nc2ccnn2C2CCN(Cc3cn(C)nc3C)CC2)cc1 | 17.1 |
| Cc1nc(Cl)c2oc3ccccc3c2n1 | 9.28 |
| c1cncc(CSc2nnc3ccc(-c4ccncc4)nn23)c1 | -26.7 |
| COc1ccccc1CN1CCCC(C(=O)c2ccccc2OC)C1 (centres unmarked) | -47.2 |
| O=C(NCc1ccccc1CN1CCCC1)c1cccc(N2CCCC2=O)c1 | -3.11 |
| CCOC(=O)C1CCN(C(=O)Cn2nc(C)n3nc(-c4ccc(CC)cc4)cc3c2=O)CC1 | 5.33 |
| O=C(N/N=C/c1ccncc1)c1ccc(NS(=O)(=O)c2cccs2)cc1 | 8.88 |
| O=C(NCc1ccco1)C1CC(c2ccc(Cl)cc2)=NO1 (centres unmarked) | 1.47 |
| Fc1cccc(CSc2nnc3ccc(-c4ccncc4)nn23)c1 | -60.4 |
| COc1ccc(C(=O)NCc2ccccc2CN2CCCC2)cc1S(=O)(=O)Nc1ccc(C)cc1 | -57.9 |
| COC(=O)c1ccc(CNC(=O)COC(=O)Cc2ccsc2)cc1 | -6.64 |
| COc1ccc(OC)c(CN2CCN(C(=O)CCNC(=O)c3ccc(Br)cc3)CC2)c1 | -45.7 |
| Cc1cc(CN2CCN(CC(=O)Nc3cc(C(F)(F)F)ccc3-n3cncn3)CC2)no1 | -69.8 |
| COc1ccc(OC)c(CN2CCN(C(=O)CNC(=O)c3ccc(C(C)(C)C)cc3)CC2)c1 | -53.9 |
| COc1ccccc1CN1CCCC(C(=O)c2ccccc2SC)C1 (centres unmarked) | -71.1 |
| O=C(O)c1cccc(S(=O)(=O)Nc2ccc3c(c2)OCO3)c1 | 23.4 |
| CCC(=O)N1CC2(c3ccccc3)CN(C(=O)CC)CC(c3ccccc3)(C1)C2=O | 5.6 |
| COc1cccc(CNC(=O)C(C)n2nc(C)n3c(cc4occc43)c2=O)c1 (centres unmarked) | 7.17 |
| Nn1c(SCc2cccc(F)c2)nnc1-c1ccncc1 | -4.03 |
| COC(=O)CCCC(=O)N1CCCC(C(=O)c2ccccc2SC)C1 (centres unmarked) | -8.08 |
| c1ccc(CSc2nnc3ccc(-c4ccncc4)nn23)nc1 | 7.44 |
| O=C(CC1CCCC1)Nc1cc(C(F)(F)F)ccc1-n1cncn1 | -10.4 |
| CCOc1ccccc1NC(=O)c1cc(SC)ccc1Cl | 50.4 |
| Cc1cc(C)c2[nH]c(C(=O)N3CCC(n4nccc4NC(=O)C4CC4)CC3)c(C)c2c1 | -44.6 |
| Fc1ccccc1CSc1nnc2ccc(-c3ccncc3)nn12 | -43.1 |
| COc1cccc(CN2CCCC(C(=O)c3ccccc3SC)C2)c1O (centres unmarked) | -77.5 |
| COc1ccc2[nH]c(C(=O)N3CCC(n4nccc4NC(=O)C4CC4)CC3)c(C)c2c1 | -30.4 |
| COc1ccc(C(=O)NCc2ccccc2OC)cc1 | -10.3 |
| COc1ccc(C(=O)O)cc1S(=O)(=O)Nc1ccc(C)cc1 | 23.1 |
| COc1cccc(CC(=O)N2CCC(n3nccc3NC(=O)C3CC3)CC2)c1 | 32 |
